- Test system: SKBR3 cells
- test: SKBR3 Cell Viability Assay (CellTiter Glo)
- Assay type: cell-based
- condition_description: 72 hours, CellTiter Glo luminescence, read-out: MCL-1 CV SKBR3 EC50
Give measured log10(EC50) for each item. Keep answers brief.
Please interpret these as log10 of EC50 where EC50 is in nM.

For every item in the list below, what is its measured log10(EC50)?
1. CO[C@H]1/C=C/CCC[S@@](=O)(NC(=O)[C@@H]2C[C@H]2c2ccnn2C)=NC(=O)c2ccc3c(c2)N(C[C@@H]2CC[C@H]21)C[C@@]1(CCCc2cc(Cl)ccc21)CO3 [Example 83]
2. CO[C@H]1/C=C/C[C@H](C)C[S@@](=O)(NC(=O)c2cc3n(c2F)CCCC3)=NC(=O)c2ccc3c(c2)N(C[C@@H]2CC[C@H]21)C[C@@]1(CCCc2cc(Cl)ccc21)CO3 [Example 174]
3. CO[C@H]1/C=C/C[C@H](C)[C@@H](C)[S@@](=O)(NC(=O)c2cnn(C3COC3)c2)=NC(=O)c2ccc3c(c2)N(C[C@@H]2CC[C@H]21)C[C@@]1(CCCc2cc(Cl)ccc21)CO3 [Example 152]
4. COCC(=O)NS1(=O)=NC(=O)c2ccc3c(c2)N(C[C@@H]2CC[C@H]2[C@@H](OC)/C=C/CCC1)C[C@@]1(CCCc2cc(Cl)ccc21)CO3 (single isomer, unassigned) [Example 7]
5. CCC(=O)NS1(=O)=NC(=O)c2ccc3c(c2)N(C[C@@H]2CC[C@H]2[C@@H](OC)/C=C/CC[C@H]1CC)C[C@@]1(CCCc2cc(Cl)ccc21)CO3 (single isomer, unassigned) [Example 65]
6. CCC(=O)N[S@]1(=O)=NC(=O)c2ccc3c(c2)N(C[C@@H]2CC[C@H]2[C@@H](O)/C=C/CCC1)C[C@@]1(CCCc2cc(Cl)ccc21)CO3 [Example 63]

Response:
2.66
2.01
1.75
3.68
3.29
3.99

###

- study_system: MCL-1/Bim interaction (recombinant human MCL-1 protein, residues 171-327; biotinylated human Bim peptide, residues 51-76) (Homo sapiens (Human), UniProt Q07820)
- Sequence (Q07820 171-327): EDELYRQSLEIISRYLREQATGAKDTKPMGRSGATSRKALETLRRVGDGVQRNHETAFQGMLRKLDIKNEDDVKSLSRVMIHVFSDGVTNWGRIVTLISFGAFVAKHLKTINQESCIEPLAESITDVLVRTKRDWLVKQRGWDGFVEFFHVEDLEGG
- test: MCL-1/Bim Binding AlphaLISA Assay
- condition_description: 0.0625 nM 6xHis-Mcl-1 (171-327), 0.0625 nM biotinylated-Bim peptide
Give measured IC50 for each item. Keep answers brief.
Answers are plain numbers, in nM.

structure_string	IC50 / nM
C[C@@H]1[C@@H](C)C/C=C/[C@H](O)[C@@H]2CC[C@H]2CN2C[C@@]3(CCCc4cc(Cl)ccc43)COc3ccc(cc32)C(=O)N=[S@]1(=O)NC(=O)c1cc2n(c1)CC(C)(C)OC2	0.263
CO[C@H]1/C=C/C[C@H](C)C[S@@](=O)(NC(=O)[C@H]2C[C@@H]2c2cccnc2)=NC(=O)c2ccc3c(c2)N(C[C@@H]2CC[C@H]21)C[C@@]1(CCCc2cc(Cl)ccc21)CO3	0.091
CO[C@H]1/C=C/C[C@H](C)C[S@@](=O)(NC(=O)N2C3COCC2C3)=NC(=O)c2ccc3c(c2)N(C[C@@H]2CC[C@H]21)C[C@@]1(CCCc2cc(Cl)ccc21)CO3	0.055
CO[C@H]1/C=C/CCC[S@@](=O)(NC(=O)CCc2ccccc2)=NC(=O)c2ccc3c(c2)N(C[C@@H]2CC[C@H]21)C[C@@]1(CCCc2cc(Cl)ccc21)CO3	0.6

Moving on to another molecule below.
Prompt: Which IC50 value belongs to CO[C@H]1/C=C/C[C@H](C)C[S@@](=O)(NC(=O)c2cc3n(c2)CCCC3)=NC(=O)c2ccc3c(c2)N(C[C@@H]2CC[C@H]21)C[C@@]1(CCCc2cc(Cl)ccc21)CO3 ?
Response: 0.526

###

- study_system: MCL-1/Bim interaction (recombinant human MCL-1 protein, residues 171-327; biotinylated human Bim peptide, residues 51-76) (Homo sapiens (Human))
- test: MCL-1/Bim Binding AlphaLISA Assay
- condition_description: 0.0625 nM 6xHis-Mcl-1 (171-327), 0.0625 nM biotinylated-Bim peptide
Give measured pIC50 for each item. Keep answers brief.
Answers are plain numbers, as −log10 of the molar value.

// below: answered compounds
structure_string	experimental_readout	meas_value
COC(=O)N1CC(NC(=O)N[S@@]2(=O)=NC(=O)c3ccc4c(c3)N(C[C@@H]3CC[C@H]3[C@@H](OC)/C=C/C[C@H](C)C2)C[C@@]2(CCCc3cc(Cl)ccc32)CO4)C1	pIC50	10.37
COc1nn(C)cc1C(=O)N[S@@]1(=O)=NC(=O)c2ccc3c(c2)N(C[C@@H]2CC[C@H]2[C@@H](OC)/C=C/[C@H](Oc2cnccn2)[C@H](C)C1)C[C@@]1(CCCc2cc(Cl)ccc21)CO3	pIC50	9.84
CO[C@H]1/C=C/C[C@H](C)C[S@@](=O)(NC(=O)N2CC(OC(=O)N3CCCCC3)C2)=NC(=O)c2ccc3c(c2)N(C[C@@H]2CC[C@H]21)C[C@@]1(CCCc2cc(Cl)ccc21)CO3	pIC50	9.89
CO[C@H]1/C=C/C[C@H](C)C[S@@](=O)(NC(=O)N[C@@H]2C[C@@H]2C)=NC(=O)c2ccc3c(c2)N(C[C@@H]2CC[C@H]21)C[C@@]1(CCCc2cc(Cl)ccc21)CO3	pIC50	9.74
CO[C@H]1/C=C/C[C@H](C)C[S@@](=O)(NC(=O)N[C@H]2C[C@@](C)(OC)C2)=NC(=O)c2ccc3c(c2)N(C[C@@H]2CC[C@H]21)C[C@@]1(CCCc2cc(Cl)ccc21)CO3	pIC50	10.34
COc1c(C(=O)N[S@@]2(=O)=NC(=O)c3ccc4c(c3)N(C[C@@H]3CC[C@H]3[C@@H](OC)/C=C/C[C@H](C)C2)C[C@@]2(CCCc3cc(Cl)ccc32)CO4)cn2c1C[C@H](OC)C2	pIC50	9.28

For every item in the list below, what is its measured pIC50?
1. CO[C@H]1/C=C/C[C@H](C)C[S@@](=O)(NC(=O)N2CC(N(C)C)C2)=NC(=O)c2ccc3c(c2)N(C[C@@H]2CC[C@H]21)C[C@@]1(CCCc2cc(Cl)ccc21)CO3
2. CO[C@H]1/C=C/CCC[S@@](=O)(NC(=O)NCc2ccncc2)=NC(=O)c2ccc3c(c2)N(C[C@@H]2CC[C@H]21)C[C@@]1(CCCc2cc(Cl)ccc21)CO3
3. CO[C@H]1/C=C/C[C@H](C)C[S@@](=O)(NC(=O)N[C@H]2C[C@H](CO)C2)=NC(=O)c2ccc3c(c2)N(C[C@@H]2CC[C@H]21)C[C@@]1(CCCc2cc(Cl)ccc21)CO3
4. COc1nn(C)cc1C(=O)N[S@@]1(=O)=NC(=O)c2ccc3c(c2)N(C[C@@H]2CC[C@H]2[C@@H](OC(=O)OC(C)C)/C=C/C[C@H](C)C1)C[C@@]1(CCCc2cc(Cl)ccc21)CO3

Response:
10.41
9.40
10.48
9.47

###

- study_system: MCL-1/Bim interaction (recombinant human MCL-1 protein, residues 171-327; biotinylated human Bim peptide, residues 51-76) (Homo sapiens (Human), UniProt Q07820)
- test: MCL-1/Bim Binding AlphaLISA Assay
- condition_description: 0.0625 nM 6xHis-Mcl-1 (171-327), 0.0625 nM biotinylated-Bim peptide
Give measured pIC50 for each item. Keep answers brief.
Give bare numbers, as −log10 of the molar value.

// below: answered compounds
compound	meas_value
CO[C@H]1/C=C/CCC[S@@](=O)(NC(=O)Cc2ccnn2C)=NC(=O)c2ccc3c(c2)N(C[C@@H]2CC[C@H]21)C[C@@]1(CCCc2cc(Cl)ccc21)CO3	9.22
CO[C@H]1/C=C/C[C@H](C)C[S@@](=O)(NC(=O)[C@H]2C[C@@H](OC)C2)=NC(=O)c2ccc3c(c2)N(C[C@@H]2CC[C@H]21)C[C@@]1(CCCc2cc(Cl)ccc21)CO3	10.07
CO[C@H]1/C=C/C[C@H](C)C[S@@](=O)(NC(=O)N[C@@H]2C[C@H]2CC(F)F)=NC(=O)c2ccc3c(c2)N(C[C@@H]2CC[C@H]21)C[C@@]1(CCCc2cc(Cl)ccc21)CO3 (single isomer, unassigned)	9.81
CO[C@H]1/C=C/C[C@H](C)C[S@@](=O)(NC(=O)N[C@H]2C[C@H](OC(=O)N(C)C)C2)=NC(=O)c2ccc3c(c2)N(C[C@@H]2CC[C@H]21)C[C@@]1(CCCc2cc(Cl)ccc21)CO3	10.28
CO[C@H]1/C=C/CCC[S@@](=O)(NC(=O)[C@@H]2C[C@H]2c2ccnn2C)=NC(=O)c2ccc3c(c2)N(C[C@@H]2CC[C@H]21)C[C@@]1(CCCc2cc(Cl)ccc21)CO3	10.00
CO[C@H]1/C=C/C[C@H](C)C[S@@](=O)(NC(=O)N2CC(OC(=O)N(C)C)C2)=NC(=O)c2ccc3c(c2)N(C[C@@H]2CC[C@H]21)C[C@@]1(CCCc2cc(Cl)ccc21)CO3	10.70

For every item in the list below, what is its measured pIC50?
1. COCc1cc(C(=O)N[S@@]2(=O)=NC(=O)c3ccc4c(c3)N(C[C@@H]3CC[C@H]3[C@@H](OC)/C=C/C[C@H](C)C2)C[C@@]2(CCCc3cc(Cl)ccc32)CO4)cn1C
2. CO[C@H]1/C=C/C[C@H](C)C[S@@](=O)(NC(=O)N[C@@H]2C[C@H]2c2cnn(C)c2)=NC(=O)c2ccc3c(c2)N(C[C@@H]2CC[C@H]21)C[C@@]1(CCCc2cc(Cl)ccc21)CO3 [Example 129]

Response:
1: 9.89; 2: 10.11

For every item in the list below, what is its measured pIC50?
1. CO[C@H]1/C=C/C[C@H](C)C[S@@](=O)(NC(=O)N[C@H]2C[C@H]2F)=NC(=O)c2ccc3c(c2)N(C[C@@H]2CC[C@H]21)C[C@@]1(CCCc2cc(Cl)ccc21)CO3
2. CCNC(=O)N[S@@]1(=O)=NC(=O)c2ccc3c(c2)N(C[C@@H]2CC[C@H]2[C@@H](OC)/C=C/C[C@H](C)C1)C[C@@]1(CCCc2cc(Cl)ccc21)CO3
3. CO[C@H]1/C=C/C[C@H](C)C[S@@](=O)(NC(=O)N[C@H]2C[C@H]2CO)=NC(=O)c2ccc3c(c2)N(C[C@@H]2CC[C@H]21)C[C@@]1(CCCc2cc(Cl)ccc21)CO3 (single isomer, unassigned)

Response:
10.17
10.09
10.40

For every item in the list below, what is its measured pIC50?
1. COC1CN(C(=O)N[S@@]2(=O)=NC(=O)c3ccc4c(c3)N(C[C@@H]3CC[C@H]3[C@@H](OC)/C=C/CCC2)C[C@@]2(CCCc3cc(Cl)ccc32)CO4)C1
2. COC[C@H]1Cn2cc(C(=O)N[S@@]3(=O)=NC(=O)c4ccc5c(c4)N(C[C@@H]4CC[C@H]4[C@@H](OC)/C=C/C[C@H](C)[C@H]3C)C[C@@]3(CCCc4cc(Cl)ccc43)CO5)cc2CO1

Response:
10.21
9.69

Cited source: patent US10703733B2
